# MEASURED TARGET: rat B1R (bradykinin receptor 1) (Rattus norvegicus)
# Construct: expressed in transfected cells; host or cells: CHO K1 cells
# MEASUREMENT NOTES: FLIPR Ca2+ assay (Fluo-4) on CHO K1 cells stably transfected with the B1R gene of the rat (rB1R cells): % inhibition at 10 μM / IC50, agonist Des-Arg9-bradykinin
# Format: cell-based
# TEST SETTINGS: CHO-K1, rat B1R
# Text: The agonistic or antagonistic action of substances can be quantified on the bradykinin receptor 1 (B1R) of the human and rat species with ectopically expressing cell lines (CHO K1 cells) and with the aid of a Ca^2+-sensitive dyestuff (Fluo-4) in a fluorescent imaging plate reader (FLIPR). […] The agonistic or antagonistic action of substances can be determined on the bradykinin receptor 1 (B1R) of the human and rat species with the following assay. […]
VALUE TYPE: inhibition at 10 µM (%)

CN(C(=O)c1ccccc1Cl)C1CCc2ccc(C(=O)N3CCC4(CC3)CCC(c3ccc(F)cc3)(N(C)C)CC4)cc21 (stereo not shown)	79
N#Cc1cccc(CN2CCC3(CC2)CCN(C(=O)c2ccc4c(c2)C(NC(=O)c2cc(C(F)(F)F)ccc2Cl)CC4)CC3)c1 (stereo not shown)	85

[P] O=C(NC1CCc2ccc(C(=O)N3CCC4(CCN(c5ncc(C(F)(F)F)cn5)CC4)C3)cc21)c1ccccc1Cl (stereo not shown)
[Q] O=C(NC1CCc2ccc(C(=O)N3CCC4(CCN(Cc5c[nH]cn5)CC4)C3)cc21)c1cc(C(F)(F)F)ccc1Cl (stereo not shown)
Prompt: API: POST /compare with P and Q ; response names the item with higher inhibition at 10 µM. Write down the label of the entry you select.
Completion: P

* * *

# MEASURED TARGET: rat B1R (bradykinin receptor 1) (Rattus norvegicus, UniProt P97583)
# Construct: expressed in transfected cells; host or cells: CHO K1 cells
# MEASUREMENT NOTES: FLIPR Ca2+ assay (Fluo-4) on CHO K1 cells stably transfected with the B1R gene of the rat (rB1R cells): % inhibition at 10 μM / IC50, agonist Des-Arg9-bradykinin
# Assay type: cell-based
# TEST SETTINGS: CHO-K1, rat B1R
# Text: The agonistic or antagonistic action of substances can be quantified on the bradykinin receptor 1 (B1R) of the human and rat species with ectopically expressing cell lines (CHO K1 cells) and with the aid of a Ca^2+-sensitive dyestuff (Fluo-4) in a fluorescent imaging plate reader (FLIPR). […] The agonistic or antagonistic action of substances can be determined on the bradykinin receptor 1 (B1R) of the human and rat species with the following assay. […]
VALUE TYPE: inhibition at 10 µM (%)

Cc1cc2c(cc1C(=O)N1CCC3(CC1)CCN(c1ccncc1)CC3)[C@H](NC(=O)c1ccccc1Cl)CC2	102
CN(C)C1(c2ccc(F)cc2)CCC2(CCN(C(=O)c3ccc4c(c3)C(N(C(=O)c3ccccc3Cl)C3CC3)CC4)CC2)CC1 (centres unmarked)	77
Cc1nc(CN2CCC3(CC2)CCN(C(=O)c2ccc4c(c2)C(NC(=O)c2ccccc2Cl)CC4)C3)c[nH]1 (centres unmarked)	73
O=C(NC1CCc2ccc(C(=O)N3CCC4(CC3)CCN(c3ccncc3)CC4)cc21)c1cnccn1 (centres unmarked)	68
O=C(NC1CCc2ccc(C(=O)N3CCC4(CCN(Cc5ccc6nccnc6c5)CC4)C3)cc21)c1cc(Cl)ccc1F (centres unmarked)	88

* * *

# MEASURED TARGET: rat B1R (bradykinin receptor 1) (Rattus norvegicus)
# Construct: expressed in transfected cells; host or cells: CHO K1 cells
# Sequence (P97583 1-337): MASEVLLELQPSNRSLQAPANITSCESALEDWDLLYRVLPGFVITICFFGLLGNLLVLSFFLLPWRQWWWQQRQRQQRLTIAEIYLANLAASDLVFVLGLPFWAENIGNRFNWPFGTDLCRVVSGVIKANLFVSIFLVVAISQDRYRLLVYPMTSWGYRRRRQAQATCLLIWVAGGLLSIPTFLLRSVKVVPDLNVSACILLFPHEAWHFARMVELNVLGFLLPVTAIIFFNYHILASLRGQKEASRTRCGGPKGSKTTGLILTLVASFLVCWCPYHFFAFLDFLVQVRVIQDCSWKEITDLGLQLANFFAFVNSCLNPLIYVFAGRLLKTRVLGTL
# MEASUREMENT NOTES: FLIPR Ca2+ assay (Fluo-4) on CHO K1 cells stably transfected with the B1R gene of the rat (rB1R cells): % inhibition at 10 μM / IC50, agonist Des-Arg9-bradykinin
# Format: cell-based
# TEST SETTINGS: CHO-K1, rat B1R
VALUE TYPE: inhibition at 10 µM (%)

[1] O=C(NC1CCCCc2ccc(C(=O)N3CCC4(CC3)CCN(c3cccnc3)CC4)cc21)c1ccccc1Cl (centres unmarked) [Ind_CC-121]
[2] COc1cccc(F)c1CN1CCC2(CC1)CCN(C(=O)c1ccc3c(c1)C(N1Cc4c(c5c(Cl)cccc5n4C)C1=O)CC3)C2 (centres unmarked) [IND_CC-795]
Prompt: // task: argmin of inhibition at 10 µM over [ 1 , 2 ] Write down the label of the entry you select.
Completion: 2

* * *

# MEASURED TARGET: rat B1R (bradykinin receptor 1) (Rattus norvegicus)
# Construct: expressed in transfected cells; host or cells: CHO K1 cells
# Sequence (P97583 1-337): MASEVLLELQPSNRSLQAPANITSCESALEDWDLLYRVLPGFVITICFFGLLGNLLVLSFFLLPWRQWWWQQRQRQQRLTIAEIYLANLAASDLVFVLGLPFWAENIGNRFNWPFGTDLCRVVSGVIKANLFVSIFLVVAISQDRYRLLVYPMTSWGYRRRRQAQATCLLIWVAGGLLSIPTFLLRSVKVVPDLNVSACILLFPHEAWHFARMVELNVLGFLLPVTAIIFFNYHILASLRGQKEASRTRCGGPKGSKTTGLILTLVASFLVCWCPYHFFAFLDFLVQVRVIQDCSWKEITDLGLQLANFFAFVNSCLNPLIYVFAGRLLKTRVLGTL
# MEASUREMENT NOTES: FLIPR Ca2+ assay (Fluo-4) on CHO K1 cells stably transfected with the B1R gene of the rat (rB1R cells): % inhibition at 10 μM / IC50, agonist Des-Arg9-bradykinin
# Assay type: cell-based
# TEST SETTINGS: CHO-K1, rat B1R
# Source text: The agonistic or antagonistic action of substances can be quantified on the bradykinin receptor 1 (B1R) of the human and rat species with ectopically expressing cell lines (CHO K1 cells) and with the aid of a Ca^2+-sensitive dyestuff (Fluo-4) in a fluorescent imaging plate reader (FLIPR). […] The agonistic or antagonistic action of substances can be determined on the bradykinin receptor 1 (B1R) of the human and rat species with the following assay. […]
VALUE TYPE: inhibition at 10 µM (%)

Sample records with inhibition at 10 µM:
O=C(NC1CCc2ccc(C(=O)N3CCC4(CC3)CCN(C(=O)C3CC3)CC4)cc21)c1ccccc1Cl (centres unmarked)	101
CC(C(=O)N[C@@H]1CCc2ccc(C(=O)N3CCC4(CCN(c5ccncc5)CC4)C3)cc21)c1ccccc1Cl (some centres unmarked)	101
CC1(C)Cc2ccc(C(=O)N3CCC4(CC3)CCN(c3ccncc3)CC4)cc2C1NS(=O)(=O)Cc1ccccc1C(F)(F)F (centres unmarked)	100
O=C(NC1CCc2ccc(C(=O)N3CCC4(CCN(C(=O)c5ccc(F)cc5F)CC4)C3)cc21)c1ccccc1Cl (centres unmarked)	79
Cc1cc2c(cc1C(=O)N1CCC3(CC1)CCN(c1ccncc1)C3)[C@H](NC(=O)c1ccccc1Cl)CC2	105

[1] Cc1ccc(C(=O)NC2c3cc(C(=O)N4CCC5(CC4)CCN(c4ccncc4)CC5)ccc3CC2(C)C)c(F)c1 (centres unmarked)
[2] CC1(C)Cc2ccc(C(=O)N3CCC4(CC3)CCN(c3ccncc3)CC4)cc2C1NC(=O)c1cccc(Cl)c1Cl (centres unmarked)
Prompt: API: POST /compare with 1 and 2 ; response names the item with higher inhibition at 10 µM. Write down the label of the entry you select.
Completion: 2
(2: 107%, 1: 60%)

* * *

# MEASURED TARGET: rat B1R (bradykinin receptor 1) (Rattus norvegicus)
# Construct: expressed in transfected cells; host or cells: CHO K1 cells
# MEASUREMENT NOTES: FLIPR Ca2+ assay (Fluo-4) on CHO K1 cells stably transfected with the B1R gene of the rat (rB1R cells): % inhibition at 10 μM / IC50, agonist Des-Arg9-bradykinin
# Format: cell-based
# TEST SETTINGS: CHO-K1, rat B1R
VALUE TYPE: inhibition at 10 µM (%)

Sample records with inhibition at 10 µM:
Cc1ccc2n1C(=O)N([C@@H]1CCc3ccc(C(=O)N4CCC5(CCN(c6ccncc6)CC5)C4)cc31)C2	103
COc1cc(C)c(C(=O)NC2CCc3ccc(C(=O)N4CCC5(CC4)CCN(c4ccncc4)CC5)cc32)c(C)c1 (stereo not drawn)	71
O=C(NC1CCc2ccc(C(=O)N3CCC4(CC3)CCN(C(=O)c3ccc(F)cc3F)CC4)cc21)c1ccccc1Cl (stereo not drawn)	100
CN(C(=O)C1CCC1)C1CCc2ccc(C(=O)N3CCC4(CC3)CCN(c3ccncc3)CC4)cc21 (stereo not drawn)	102
O=C(NC1CCc2ccc(C(=O)N3CCC4(CC3)CCN(c3ccncc3)CC4)cc21)c1cc(F)ccc1Cl (stereo not drawn)	104

[I] O=C(N[C@@H]1CCc2ccc(C(=O)N3CCC4(CCN(c5ccncc5)CC4)C3)cc21)c1cc(F)ccc1Cl
[II] O=C(N[C@@H]1CCc2c(C(=O)N3CCC4(CCN(c5ccncc5)CC4)C3)cccc21)c1ccccc1Cl
Prompt: API: POST /compare with I and II ; response names the item with higher inhibition at 10 µM. Write down the label of the entry you select.
Completion: I
(I: 101%, II: 61%)
